Reference source for all entries: patent US11603368B2

# System: NFκB
# Test description: NFκB reporter assay, TNFα stimulation
# Assay type: cell-based
# Experimental parameters: Homo sapiens; A549 NFκB-NanoLuciferase reporter cells, 4 ng/ml TNFα, 6 hours
pEC50: −log10 of the molar value.
pEC50 overview
Value type: pEC50

Molecule: CC(C)(C)C1CCc2c(sc(NC(=O)c3ccccc3F)c2C(=O)O)C1 (stereo not drawn)
Tested system: NFκB
Value type: pEC50
Quantitative result: 6.49

Molecule: COc1ccc(C(=O)Nc2sc3c(c2C(=O)O)CCC(C(C)(C)C)C3)cc1 (stereo not drawn)
Tested system: NFκB
Value type: pEC50
Quantitative result: 6.80

Molecule: CC(C)(C)C1CCc2c(sc(NC(=O)c3ccc(Cl)cc3)c2C(=O)O)C1 (stereo not drawn)
Tested system: NFκB
Value type: pEC50
Quantitative result: 6.52

---

# Test system: H1N1 (influenza A/New Caledonia/20/99)
# Test description: Antiviral effect on A549 cells infected with H1N1
# Assay type: cell-based, H1N1 A/New Caledonia/20/99 virus
# Experimental parameters: Human A549 cells, MOI of 0.1, 48 h post-infection, MUNANA hydrolysis readout
// reported IC50 for each item listed
Value type: IC50 (nM)

Molecule: CC1CCCc2sc(NC(=O)c3ccccc3)c(C(=O)O)c21 (stereo not drawn) [#74]
Quantitative result: 182
--
Molecule: Cc1ccccc1C(=O)Nc1sc2c(c1C(=O)O)CCC(C(C)(C)C)C2 (stereo not drawn) [#239]
Quantitative result: 548
--
Molecule: CC(C)(C)C1CCc2c(sc(NC(=O)c3ccccc3)c2C(=O)O)C1 (stereo not drawn) [#71]
Quantitative result: 160
--
Molecule: CC(C)(C)C1CCc2c(sc(NC(=O)c3ccccc3)c2C(=O)O)C1 (stereo not drawn) [#67]
Quantitative result: 91.7
--
Molecule: O=C(Nc1sc2c(c1C(=O)O)CCC(c1ccccc1)C2)c1ccccc1 (stereo not drawn) [#46]
Quantitative result: 150
--
Molecule: CC(C)(C)C1CCc2c(sc(NC(=O)c3ccccc3C(F)(F)F)c2C(=O)O)C1 (stereo not drawn) [#100]
Quantitative result: 873
--
Molecule: CC(C)(C)C1CCc2c(sc(NC(=O)c3ccccc3F)c2C(=O)O)C1 (stereo not drawn) [#238]
Quantitative result: 310
--
Molecule: CC(C)(C)C1CCc2c(sc(NC(=O)c3ccc(F)cc3)c2C(=O)O)C1 (stereo not drawn) [#236]
Quantitative result: 131
--
Molecule: CC(C)(C)C1CCc2c(sc(NC(=O)c3ccccc3C(F)(F)F)c2C(=O)O)C1 (stereo not drawn) [#109]
Quantitative result: 1200

---

# log10 of IC50 per entry
# Tested on: H1N1 (influenza A/New Caledonia/20/99)
# Test description: Antiviral effect on A549 cells infected with H1N1
# Type: cell-based, H1N1 A/New Caledonia/20/99 virus
# Experimental parameters: Human A549 cells, MOI of 0.1, 48 h post-infection, MUNANA hydrolysis readout
Value type: log10 of IC50 (log10 of the value in nM)

Compound: CC(C)(C)C1CCc2c(sc(NC(=O)c3ccccc3F)c2C(=O)O)C1 (stereo not shown) [#73]
log10 of IC50: 2.26
--
Compound: O=C(Nc1sc2c(c1C(=O)O)CCC(c1ccccc1)C2)c1ccccc1 (stereo not shown) [#47A]
log10 of IC50: 1.60
--
Compound: CC(C)(C)C1CCc2c(sc(NC(=O)c3ccccc3)c2C(=O)O)C1 (stereo not shown) [#66]
log10 of IC50: 1.84
--
Compound: CC1CCCc2sc(NC(=O)c3ccccc3)c(C(=O)O)c21 (stereo not shown) [#79]
log10 of IC50: 2.47
--
Compound: O=C(Nc1sc2c(c1C(=O)O)C1CCC2C1)c1ccccc1 (stereo not shown)
log10 of IC50: 3.10
--
Compound: CC(C)(C)C1CCc2c(sc(NC(=O)c3ccc(F)cc3)c2C(=O)O)C1 (stereo not shown) [#237]
log10 of IC50: 2.32
--
Compound: Cc1ccccc1C(=O)Nc1sc2c(c1C(=O)O)CCC(C(C)(C)C)C2 (stereo not shown) [#87]
log10 of IC50: 2.65
--
Compound: CC(C)(C)C1CCc2c(sc(NC(=O)c3ccccc3F)c2C(=O)O)C1 (stereo not shown) [#69]
log10 of IC50: 2.08
--
Compound: O=C(Nc1sc2c(c1C(=O)O)CCC(c1ccccc1)C2)c1ccccc1 (stereo not shown) [#47B]
log10 of IC50: 1.85
--
Compound: CC1CCCc2sc(NC(=O)c3ccccc3)c(C(=O)O)c21 (stereo not shown) [#88]
log10 of IC50: 2.74

---

# Tested system: UniProt Q8N5K1
# Sequence (Q8N5K1 57-135 limits assumed): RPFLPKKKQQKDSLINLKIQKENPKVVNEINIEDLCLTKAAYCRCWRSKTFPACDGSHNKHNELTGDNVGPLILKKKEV
# Test description: Stability of Fe—S cluster binding of purified NEET protein NAF-1
# Assay type: biochemical
# Experimental parameters: time to 50% Fe—S cluster bound loss changed by more than 25% vs Control sample, at the concentrations tested
Value type: stabiliser or destabiliser of Fe—S cluster binding, CISD2 Gene Product (NAF-1)

Compound: CC1CCCc2sc(NC(=O)c3ccccc3)c(C(=O)O)c21 (stereo not drawn)
Result: Stabilisers

Compound: O=C(Nc1sc2c(c1C(=O)O)CCN(c1ccccc1)C2)c1ccccc1
Result: Stabilisers

Compound: CC(C)(C)C1CCc2c(sc(NC(=O)c3ccccc3)c2C(=O)O)C1 (stereo not drawn)
Result: destabilisers

Compound: O=C(Nc1sc2c(c1C(=O)O)C(c1ccccc1)CCC2)c1ccccc1 (stereo not drawn)
Result: Stabilisers

Compound: O=C(Nc1sc2c(c1C(=O)O)CCC(c1ccccc1)C2)c1ccccc1 (stereo not drawn)
Result: destabilisers

Compound: CC(C)OC1CCc2c(sc(NC(=O)c3ccccc3)c2C(=O)O)C1 (stereo not drawn)
Result: Stabilisers

---

# Test system: H1N1 (influenza A/New Caledonia/20/99)
# Test description: Antiviral effect on A549 cells infected with H1N1
# Assay type: cell-based, H1N1 A/New Caledonia/20/99 virus
# Experimental parameters: Influenza A virus, H1N1, A549, 48 h, Human A549 cells, MOI of 0.1, 48 h post-infection, MUNANA hydrolysis readout
pIC50: −log10 of the molar value. Counter-ions that a name gives are not always drawn.
Reported pIC50 values follow for various compounds

Compound: COc1ccc(C(=O)Nc2sc3c(c2C(=O)O)CCC(c2ccccc2)C3)cc1OC (centres unmarked)
pIC50: 7.05
--
Compound: Cc1ccccc1C(=O)Nc1sc2c(c1C(=O)O)CCN(CC(C)C)C2 [#129, formate salt]
pIC50: 4.78
--
Compound: Cc1ccccc1N1CCc2c(sc(NC(=O)c3ccccc3)c2C(=O)O)C1
pIC50: 6.68
--
Compound: O=C(Nc1sc2c(c1C(=O)O)CCN(c1ccc(C(F)(F)F)cc1)C2)c1ccccc1
pIC50: 6.18
--
Compound: O=C(Nc1sc2c(c1C(=O)O)CCC2)c1ccccc1
pIC50: 6.09

---

# Tested on: H1N1 (influenza A/New Caledonia/20/99)
# Test description: Antiviral effect on A549 cells infected with H1N1
# Type: cell-based, H1N1 A/New Caledonia/20/99 virus
# Experimental parameters: Influenza A virus, H1N1, A549, 48 h, Human A549 cells, MOI of 0.1, 48 h post-infection, MUNANA hydrolysis readout
# Experimental: The antiviral effect of the compounds of the invention has been tested on A549 cell lines infected with H1N1 (influenza A/New Caledonia/20/99). Human A549 cells (80,000 cells/well in a 96 well plate) were treated with a range of concentration of test molecules and immediately infected by H1N1 A/New Caledonia/20/99 virus (clinical isolate) at MOI of 0.1 in DMEM/1% Penicillin/streptomycin supplemented with 0.25 μg/ml TPCK trypsin (Sigma) and incubated at 37° C. in 5% CO2. […]
Measured log10(IC50), listed per entry.
Value type: log10(IC50) (log10 of the value in nM)

Compound: COc1ccc(C(=O)Nc2sc3c(c2C(=O)O)CCC(C(C)(C)C)C3)nc1 (stereo not drawn)
Tested system: H1N1 (influenza A/New Caledonia/20/99)
log10(IC50): 2.79
--
Compound: CC(C)(C)C1CCc2c(sc(NC(=O)N3CCCCC3)c2C(=O)O)C1 (stereo not drawn)
Tested system: H1N1 (influenza A/New Caledonia/20/99)
log10(IC50): 3.36
--
Compound: COC1CN(c2ccc(C(=O)Nc3sc4c(c3C(=O)O)CCCC4)cc2)C1
Tested system: H1N1 (influenza A/New Caledonia/20/99)
log10(IC50): 2.04
--
Compound: O=C(Nc1sc2c(c1C(=O)O)C(c1ccccc1)CCC2)c1ccccc1 (stereo not drawn)
Tested system: H1N1 (influenza A/New Caledonia/20/99)
log10(IC50): 3.14
--
Compound: CC1CCCc2sc(NC(=O)c3ccc(N4CCOCC4)cc3)c(C(=O)O)c21 (stereo not drawn)
Tested system: H1N1 (influenza A/New Caledonia/20/99)
log10(IC50): 2.16
--
Compound: Cc1ccccc1C(=O)Nc1sc2ccccc2c1C(=O)O
Tested system: H1N1 (influenza A/New Caledonia/20/99)
log10(IC50): 3.70
